- procedure-text: qHTS assay to identify small molecule antagonists of the retinoic acid receptor (RAR) signaling pathway (AID 1159552; further: nearly all actives have a fitted effect of over 50% in size)
- condition-info: C3RL4 RARE luciferase reporter, retinol-stimulated, 6 h; series mostly up to 92.4 µM
Results filed as inconclusive are left out. The source made the active and inactive calls. The call rests on the fitted dose curve; in most records, active means well fitted inhibition curve with a large enough effect in the repeat runs; inconclusive means weak or mixed curves, or effect the other way; inactive means no such curve, though single readings can be large or run the other way.
# valid calls are active, inactive; nothing else

Ask: Recorded test call requested for "Cc1nc2ccccn2c(=O)c1CCN1CCC(C(=O)c2ccc(F)cc2)CC1"
Reply: inactive

Ask: Hi, sorry to bother you, what did the test record for "CCOC(=O)CC(=O)C(=O)OCC" ?
Reply: inactive

Ask: What was the test verdict on "O=C(O)c1c(O)c(-c2ccccc2)nc2ccccc12" ?
Reply: inactive

Ask: Hi team, can someone confirm the assay call for "C[N+](C)(C)CCOC(N)=O" ?
Reply: inactive

Ask: Entry CCOc1cc(N)c(Cl)cc1C(=O)NCC1CN(Cc2ccc(F)cc2)CCO1 (stereo unspecified) : call = ?
Reply: inactive

Ask: Tell me the assay call for "O=C(c1ccc(O)cc1)c1ccc(Cl)cc1" please.
Reply: inactive

Ask: Record request — test call for "O=C(Nc1ccc([N+](=O)[O-])cc1)Nc1ccc([N+](=O)[O-])cc1"
Reply: inactive

Ask: So what was the verdict on CCC(C)(C)C1CCC(O)CC1 (stereo unspecified) in this test?
Reply: inactive

Ask: Which outcome was entered for the molecule CCCCC(CC)C(=O)OCCOCCOCCOCCOC(=O)C(CC)CCCC (stereo unspecified) in this test?
Reply: inactive

Ask: Please share the test call associated with CCC(C(=O)OCCOCCN(CC)CC)c1ccccc1 (stereo unspecified) .
Reply: inactive

Ask: Can you look up the reported call for CCCCC(CC)CNCC(CC)CCCC (stereo unspecified) for me?
Reply: inactive

Ask: Outcome? "Cc1oncc1C(=O)Nc1ccc(C(F)(F)F)cc1"
Reply: inactive

Ask: Assay outcome for "COC(=O)c1cc(S(N)(=O)=O)ccc1OC" : what was it?
Reply: inactive

Ask: Identify the outcome logged in this assay for the molecule shown: CC(CCc1ccc2c(c1)OCO2)NN (stereo unspecified)
Reply: inactive

Ask: GET /call?item= "CCCCCCCCSCCO" returns the recorded outcome of this test.
Reply: inactive

Ask: Outcome logged for "CCCOC(=O)c1ccc(N)cc1" in this assay:
Reply: inactive

Ask: Query: recorded result category for "CC(C)=CC=O" in this test
Reply: inactive

Ask: Kindly provide the recorded test outcome for the following molecule: O=C(O)C(Cc1cc(I)c(O)c(I)c1)c1ccccc1 (stereo unspecified)
Reply: inactive

Ask: # outcome recorded in this test, key = "COc1ccc(C(=O)c2cccc(O)c2)c(OC)c1"
Reply: inactive

Ask: Would you mind telling me which call this test gave Fc1ccccc1[C@@H](F)COC1CCC(Nc2ncnc3[nH]ncc23)CC1 (stereo partly specified) ?
Reply: inactive

Ask: Could you check what this test reported for "O=C(O)c1cccc(O)c1" ?
Reply: inactive

Ask: What was the test verdict on "Nc1ccc(C(=O)OCCCOC(=O)c2ccc(N)cc2)cc1" ?
Reply: inactive

Ask: // outcome(item) with item = O=c1[nH]c2ccc(S(=O)CCN3CCC(Cc4ccc(F)cc4)CC3)cc2o1 (stereo unspecified)
Reply: inactive
